src = patent US12473291B2

System: KM mice
Assay: animal or person
Type: in vivo
Conditions: mouse, in vivo
endpointName: 2ED50 recovery time (min)
Note: unit min is implicit; provide only the numeric part.

* CCOC(=O)OCOC(=O)CC[C@@H]1N=C(c2ccccn2)c2cc(Cl)cc(F)c2-n2c(C)cnc21 | 2.36

Request: Recorded 2ED50 recovery time for Cc1c(Cl)c(C(F)(F)F)cc2c1C(c1ccccn1)=N[C@@H](CCC(=O)OC(C)C(=O)OC(C)C)c1ncc(C)n1-2 (stereo partly shown) , please?
Result: 1.36

Request: Need 2ED50 recovery time of COC(=O)OCOC(=O)CC[C@@H]1N=C(c2ccccn2)c2cc(Cl)c(F)cc2-n2c(C)cnc21 , thanks.
Result: 2.54

Request: Given CCOC(=O)C1(OC(=O)CC[C@@H]2N=C(c3ccccn3)c3cc(Cl)c(Cl)cc3-n3c(C)cnc32)CC1 , state its recorded 2ED50 recovery time.
Result: 2.38
